For each of the binders below, state its CRF2R Emax.
Molecular target: T1, CRF2R
T1 sequence (Q13324 whole entry, species assumed, looked up): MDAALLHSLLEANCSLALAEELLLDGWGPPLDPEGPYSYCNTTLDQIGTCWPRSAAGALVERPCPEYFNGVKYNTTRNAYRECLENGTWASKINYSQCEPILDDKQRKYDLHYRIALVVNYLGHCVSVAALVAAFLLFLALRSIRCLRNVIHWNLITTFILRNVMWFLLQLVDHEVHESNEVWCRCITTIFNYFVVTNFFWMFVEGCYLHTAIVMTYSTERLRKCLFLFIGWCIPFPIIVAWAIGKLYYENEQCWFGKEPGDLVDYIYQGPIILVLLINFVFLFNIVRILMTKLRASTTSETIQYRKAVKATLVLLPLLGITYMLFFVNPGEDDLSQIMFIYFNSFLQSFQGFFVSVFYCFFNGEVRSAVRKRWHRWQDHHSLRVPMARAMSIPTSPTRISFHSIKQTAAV
Assay: cell-based or functional assay
Ends that are not written are not given here.
Give a bare numeral; the unit % is implied.

Look up and state reported CRF2R Emax for IVLSLDVPIGLLQILLEQTRADAAREQATTNARILARV-NH2 [SEQ ID NO 126]
91

Look up and state reported CRF2R Emax for IVLSLDVPIGLLQILLEQTKADQLAQQAHSNRKLLDIA-NH2 [SEQ ID NO 159]
62

Look up and state reported CRF2R Emax for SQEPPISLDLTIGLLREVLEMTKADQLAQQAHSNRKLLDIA-NH2 [SEQ ID NO 86]
8.1

Look up and state reported CRF2R Emax for ZGPPISIDLPIKLLRKMIEIEKQEKEKQQAANNRLLLDTI (C-terminal amide) [SEQ ID NO 34]
45

Look up and state reported CRF2R Emax for ZGPPISIDLPLILLRKMIEIEKQEKEKQQAANNRLLLDTI (C-terminal amide) [SEQ ID NO 194]
96

Look up and state reported CRF2R Emax for ZGPPISIDLPTPLLRKMIEIEKQEKEKQQAANNRLLLDTI (C-terminal amide) [SEQ ID NO 52]
10
